Data provenance: patent US20120231006A1

Target: T1, hOrai1-mOrai1 ECL2 chimeric protein (human/mouse chimera, UniProt Q96D31 1-301)
T1 construct: human Orai1 with mouse ECL2; also called Ch
T1 sequence (Q96D31 other isoform, or with tags, fused parts or gaps mutant): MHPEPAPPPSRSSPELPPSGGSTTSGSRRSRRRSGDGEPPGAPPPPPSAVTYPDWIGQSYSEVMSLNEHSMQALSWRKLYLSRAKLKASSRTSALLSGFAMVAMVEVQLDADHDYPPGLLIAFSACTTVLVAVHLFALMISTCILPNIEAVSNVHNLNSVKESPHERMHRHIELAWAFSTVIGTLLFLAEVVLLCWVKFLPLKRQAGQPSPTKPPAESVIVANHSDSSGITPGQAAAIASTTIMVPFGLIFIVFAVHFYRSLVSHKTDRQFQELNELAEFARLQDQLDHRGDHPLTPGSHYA
Test: FACS, 293EBNA
Parameters: concentration or dose not given beside the values
Property Measured: POC (percent of control, FACS Geo Mean relative to Ch. 1)

Ask: So what does the record say about POC (percent of control, FACS Geo Mean relative to Ch. 1) for mAb 2B4.1 (antibody, human IgG2, lambda, V domains shown) VH: QVQLVQSGAEVKKPGASVKVSCKASGYTFTDYYMHWVRQAPGQGLEWMGWINPNSGGTNYVQKFQDRVTMTRDTSITTAYMELTRLRSDDTAVYYCAREEGDYGMDVWGQGTTVTVSS VL: QSVLTQPPSVSGAPGQRVTISCTGSNSNIGTGYDVHWYQKLPGTAPRLLIYSHFNRPSGVPDRFSGSTSGTSASLAITGLQAEDEADYYCQSYDSSLSGSVFGGGTKLTVLG ?
Reply: < 1%
